Every entry's value here was drawn from PubChem BioAssay (NCI).

test system: SR leukemia; experiment: NCI-60 one-dose screen, 48 h; conditions: 10 µM unless noted
About 83,000 compounds went through this panel and 20% of them were active in at least one assay; those are over-represented in the sample as a whole. Calls of active or inactive are those of the source. How the source made its calls: active means growth percent below 10; inactive means the rest.
Entry note: the call must match one of True (active), False (inactive)

So what was the verdict on CC(=O)c1c(O)c(C)c(O)c2c1OC1=CC(=O)/C(=C(/C)N)C(=O)C12C (stereo not given) in this test? False

So what was the verdict on Cc1ccccc1CNc1ncnc2[nH]ncc12 in this test? False

So what was the verdict on Oc1c(C(c2ccc(F)cc2)N2CCCCC2)ccc2cncnc12 (stereo not given) in this test? False

So what was the verdict on CCCCCCCCCCCCCCCCS(=O)(=O)Nc1cc(C(=O)NN)cc(C(=O)NN)c1 in this test? False

So what was the verdict on C#CC[C@@H]1C[C@]2(C)[C@H]3CC[C@@H]4[C@H]5C(C(=C)C)CC[C@]5(C(=O)NCCCN5CCN(CCCN)CC5)CC[C@@]4(C)[C@]3(C)CC[C@H]2C(C)(C)[C@H]1OC(C)=O (stereo not given in full) in this test? True

---

Test system: HCT-116 colon
Assay: NCI-60 one-dose screen, 48 h (100 = growth as untreated, 0 = no growth, -100 = all killed)
Settings: 10 µM unless noted
Description: Growth inhibition of the HCT-116 human tumor cell line is measured as a screen for anti-cancer activity. Cells are grown in 96 well plates and exposed to the test compound for 48 hours. Compounds are tested at a single concentration, which is 10^-5 M for most compounds. The reported endpoint is percent growth (GI% or GIPRCNT), where numbers from 0 - 100% represent growth inhibition, and numbers from -100% - 0 represent cell death. For example, a value of 40 represents 60% growth inhibition. […]
About 83,000 compounds went through this panel and 20% of them were active in at least one assay; those are over-represented in the sample as a whole.
recorded-endpoint: growth (%)
Write down the numeric answer in % and omit the unit.

State its growth for this molecule: COC1CC(N)C2OC(c3ccccc3)OCC2O1 (stereo not given) 102

State its growth for this molecule: COC(=O)/C=C/c1cc(OC(C)=O)c2c(c1)[C@@H](C(=O)OC)[C@H](c1ccc(OC(C)=O)c(OC(C)=O)c1)O2 6.38

State its growth for this molecule: Nc1nc(N)c2c(n1)NC(c1sc(Cl)nc1Cl)CC(c1ccc3c(c1)OCO3)=N2 (stereo not given) 20.1

State its growth for this molecule: CN(C)c1ccc(Nc2c3ccccc3nc3ccccc23)cc1 5.58

State its growth for this molecule: C/C(=N\NC(=S)N1CCCCC1)c1ccccn1 13.3

State its growth for this molecule: CC(=O)[C@H]1CC[C@H]2[C@@H]3CC[C@H]4CC=CC[C@]4(C)[C@H]3CC[C@]12C 84.8

State its growth for this molecule: N#Cc1nc(-c2ccc(Cl)cc2)cc(-c2ccc(Nc3nc(N4CCCCC4)nc(N4CCCCC4)n3)cc2)c1N 102

State its growth for this molecule: C#CC[C@@H]1C[C@]2(C)[C@H]3CC=C4[C@H]5[C@@H](C)[C@H](C)CC[C@]5(C(=O)NCCCCCCCCN)CC[C@@]4(C)[C@]3(C)CC[C@H]2C(C)(C)[C@H]1OC(C)=O -99.4

State its growth for this molecule: O=S(=O)(NCC[C@@H]1C[C@H]1c1ccc2ccccc2c1)c1ccc(C(F)(F)F)cc1 88

State its growth for this molecule: Cc1ccc(Nc2nc(NCCO)c3ccccc3n2)cc1C 16.5

State its growth for this molecule: O=c1c2sc3ccccc3c2nnn1-c1ccc(F)c(Cl)c1 19.9

State its growth for this molecule: O=C(Cn1nncc1CN1C(=O)CSC1=O)Nc1ccc(F)cc1 101

State its growth for this molecule: COc1cc(Cn2c(-c3ccccc3)cc3c2-c2oncc2CC3)cc(OC)c1OC 25.3

State its growth for this molecule: CCOC(=O)C(Nc1ccccc1)C(=O)OCC 101

State its growth for this molecule: Cc1[nH]n(C(=O)c2ccncc2)c(=O)c1N=Nc1ccc(O)c(C(=O)O)c1 75.3

State its growth for this molecule: CS(=O)(=O)Nc1cc(-c2cc3ncc(C#N)c(Nc4ccc(Oc5ccccc5)c(Cl)c4)c3s2)cnc1Cl 45.1

State its growth for this molecule: O=C1/C(=C\c2cccn2C(=O)c2ccccc2)c2ccccc2N1c1c(Cl)cccc1Cl 30.5

State its growth for this molecule: CC(C)N=C1CCCC1C(=S)SSC(=S)C1CCCC1=NC(C)C (stereo not given) 51.4

State its growth for this molecule: COc1ccc(C2C3=C(COC3=O)N(CCO)c3cc(OC)c(OC)cc32)cc1 (stereo not given) 103

State its growth for this molecule: Cc1ccc(NC(=O)c2[nH]c(SCCN(C)C)nc2-c2ccc(F)cc2)cc1Nc1ccc2ncn(C)c(=O)c2c1 21
